Test system: T. mentagrophytes (PTCC 5054)
Test: Microdilution MIC90, strain M
Type: cell-based
Conditions: Trichophyton mentagrophytes, PTCC5054, 48 h
result-type: MIC90 (µg/mL)

Here's what some known entries look like.
1) O=C(Nc1cccc(C(F)(F)F)c1)Nc1nnc(SCC(O)(Cn2cncn2)c2ccc(F)cc2F)s1 (centres unmarked)
16
2) OC(Cn1cncn1)(Cn1cncn1)c1ccc(F)cc1F [FLC, Fluconazole, reference compound]
4
3) O=C(Nc1ccc(F)cc1)Nc1nnc(SCC(O)(Cn2cncn2)c2ccc(F)cc2F)s1 (centres unmarked)
2

[I] O=C(Nc1nnc(SCC(O)(Cn2cncn2)c2ccc(F)cc2F)s1)Nc1ccc(F)cc1F (centres unmarked)
[II] Cc1ccc(NC(=O)Nc2nnc(SCC(O)(Cn3cncn3)c3ccc(F)cc3F)s2)cc1 (centres unmarked)
Choose between I and II : whose measured MIC90 value is numerically larger? Identify your selection by its label.
II

* * *

Test system: T. mentagrophytes (PTCC 5054)
Test: Microdilution MIC90, strain M
Type: cell-based
Conditions: Trichophyton mentagrophytes, PTCC5054, 48 h
result-type: MIC90 (µg/mL)

1. COc1ccc(NC(=O)Nc2nnc(SCC(O)(Cn3cncn3)c3ccc(F)cc3F)s2)cc1 (centres unmarked) [Compound 8b]
4
2. O=C(Nc1nnc(SCC(O)(Cn2cncn2)c2ccc(F)cc2F)s1)Nc1ccccc1Br (centres unmarked) [Compound 8m]
32
3. O=C(Nc1nnc(SCC(O)(Cn2cncn2)c2ccc(F)cc2F)s1)Nc1ccccc1C(F)(F)F (centres unmarked) [Compound 8k]
32
4. O=C(Nc1ccc(Cl)c(Cl)c1)Nc1nnc(SCC(O)(Cn2cncn2)c2ccc(F)cc2F)s1 (centres unmarked) [Compound 8q]
16

[1] O=C(Nc1ccc(Cl)cc1)Nc1nnc(SCC(O)(Cn2cncn2)c2ccc(F)cc2F)s1 (centres unmarked) [Compound 8a]
[2] O=C(Nc1ccc(Br)cc1)Nc1nnc(SCC(O)(Cn2cncn2)c2ccc(F)cc2F)s1 (centres unmarked) [Compound 8d]
Choose between 1 and 2 : whose measured MIC90 value is numerically larger? Identify your selection by its label.
2

* * *

Test: MTT cytotoxicity assay, A-431
Assay type: cell-based, human
Settings: human, A-431 epidermoid carcinoma cells
result-type: viability at 48 h, 100 μg/mL

Indicate the recorded viability at 48 h, 100 μg/mL value for this compound: COc1ccc(NC(=O)Nc2nnc(SCC(O)(Cn3cncn3)c3ccc(F)cc3F)s2)cc1 (stereo not shown) [Compound 8b]
< 50%

* * *

System: C. albicans (ATCC 10231)
Assay: Microdilution MIC90, strain A
Assay type: cell-based
Conditions: 24 h, strain A, yeast, 24 h at 37 °C, triplicate
result-type: MIC90 (µg/mL)

Here's what some known entries look like.
1. O=C(Nc1cccc(Cl)c1)Nc1nnc(SCC(O)(Cn2cncn2)c2ccc(F)cc2F)s1 (stereo not shown)
4
2. O=C(Nc1ccc(Cl)c(Cl)c1)Nc1nnc(SCC(O)(Cn2cncn2)c2ccc(F)cc2F)s1 (stereo not shown)
32
3. COc1ccc(NC(=O)Nc2nnc(SCC(O)(Cn3cncn3)c3ccc(F)cc3F)s2)cc1 (stereo not shown)
0.5
4. O=C(Nc1ccc(Cl)cc1)Nc1nnc(SCC(O)(Cn2cncn2)c2ccc(F)cc2F)s1 (stereo not shown)
32

[1] O=C(Nc1ccc(Br)cc1)Nc1nnc(SCC(O)(Cn2cncn2)c2ccc(F)cc2F)s1 (stereo not shown)
[2] COc1cccc(NC(=O)Nc2nnc(SCC(O)(Cn3cncn3)c3ccc(F)cc3F)s2)c1 (stereo not shown)
[3] Cc1ccc(NC(=O)Nc2nnc(SCC(O)(Cn3cncn3)c3ccc(F)cc3F)s2)cc1 (stereo not shown)
// sort entries: MIC90, high to low Present the labels in the sequence the task asks for.
1, 2, 3
(1: 32 µg/mL, 2: 16 µg/mL, 3: 0.5 µg/mL)
